- targetEntity: MMP3 (Homo sapiens, UniProt P08254)
- Sequence (P08254 100-477): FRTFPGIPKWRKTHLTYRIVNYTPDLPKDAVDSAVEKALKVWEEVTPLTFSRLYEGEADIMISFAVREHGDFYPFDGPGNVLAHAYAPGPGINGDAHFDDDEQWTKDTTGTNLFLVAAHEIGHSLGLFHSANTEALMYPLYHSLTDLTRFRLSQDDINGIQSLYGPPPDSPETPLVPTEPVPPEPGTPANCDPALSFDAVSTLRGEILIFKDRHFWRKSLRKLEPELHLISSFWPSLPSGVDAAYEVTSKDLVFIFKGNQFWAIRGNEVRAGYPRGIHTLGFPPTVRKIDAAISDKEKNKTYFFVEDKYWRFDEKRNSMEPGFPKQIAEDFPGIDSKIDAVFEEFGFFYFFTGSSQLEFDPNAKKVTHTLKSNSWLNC
- experimentNotes: Activity of purified MMP on substrate (reporter release)
- Type: biochemical
- conditionsUsed: Table 1b; MMP3
assayMetric: Activity of selected substrates with MMPs

compound	readoutValue
COC(=O)CNC(=O)[C@H](CC(C)C)NC(=O)[C@@H](NC(=O)CNC(=O)[C@H](CC(C)C)NC(=O)[C@@H]1CCCN1C(C)=O)Nc1ccc(-c2nnc(-c3ccc(C)cc3)o2)cc1	0.00 units/s (molRXH/molEnz * s)

Value (Activity of selected substrates with MMPs, MMP3 (Homo sapiens, UniProt P08254)) for record `COC(=O)CCNC(=O)[C@H](CC(C)C)NC(=O)[C@@H](NC(=O)CNC(=O)[C@H](CC(C)C)NC(=O)[C@@H]1CCCN1C(C)=O)Nc1ccc([N+](=O)[O-])cc1` = 3.8 units/s (molRXH/molEnz * s)

Value (Activity of selected substrates with MMPs, MMP3 (Homo sapiens, UniProt P08254)) for record COC(=O)CNC(=O)[C@H](CC(C)C)NC(=O)[C@@H](NC(=O)CNC(=O)[C@H](CC(C)C)NC(=O)[C@@H]1CCCN1C(C)=O)OCc1ccc(-c2ccccc2)cc1 (single isomer, unassigned) = 5.5 units/s (molRXH/molEnz * s)

Value (Activity of selected substrates with MMPs, MMP3 (Homo sapiens, UniProt P08254)) for record `CC(=O)N1CCC[C@H]1C(=O)N[C@@H](CC(C)C)C(=O)NCC(=O)N[C@@H](Nc1ccc([N+](=O)[O-])cc1)C(=O)N[C@@H](Cc1ccccc1)C(=O)Nc1ccccc1` = 0.18 units/s (molRXH/molEnz * s)
